# Test system: Johnson grass (JG)
# assay-remarks: Post-emergence herbicide test
# Format: in vivo, Sorgum helepense
# applied-conditions: Sorghum halepense, 336 h, 8 lb/acre, two weeks after treatment
endpoint-name: pest or weed control at 8966.8 g/ha (%)
Value expressed in %; do not type the unit.

Past entries and their recorded results:
molecule | unit | pest or weed control at 8966.8 g/ha
O=C(Nc1ccc(Cl)c(Cl)c1)Nc1nnc(C(F)(F)F)s1 [Example 16] | % | 20
CNC(=O)Nc1nnc(-c2cccc(Cl)c2)s1 [Example 72] | % | 20
CC(C)NC(=O)Nc1nnc(C(F)(F)F)s1 [Example 11] | % | 30
CNC(=O)Nc1nnc(C(F)(F)Cl)s1 [Example 57] | % | 40

**Query** Request the reported pest or weed control at 8966.8 g/ha associated with CCCNC(=O)Nc1nnc(SC)s1 [Example 29]
**Result** 20

**Query** Requested read-out: pest or weed control at 8966.8 g/ha. Entry: CNC(=O)Nc1nnc(-c2ccc(Cl)cc2)s1 [Example 71]
**Result** 20

**Query** pest or weed control at 8966.8 g/ha lookup needed for CNC(=O)Nc1nnc(SC)s1 [Example 26] , thanks.
**Result** 100

**Query** // query pest or weed control at 8966.8 g/ha value for entry CCNC(=O)Nc1nnc(C(F)(F)F)s1 [Example 9]
**Result** 80

**Query** Which pest or weed control at 8966.8 g/ha value is on record for CNC(=O)Nc1nnc(-c2ccccc2)s1 [Example 34] ?
**Result** 30

**Query** I would be grateful if you could share the reported pest or weed control at 8966.8 g/ha for CSc1nnc(NC(=O)NC(C)C)s1 [Example 30] .
**Result** 20

**Query** Dear colleague, I am looking for the recorded pest or weed control at 8966.8 g/ha of the following molecule: CCN(C(=O)NC)c1nnc(C(F)(F)F)s1 [Example 37]
**Result** 70
